TESTED TARGET: T1, human-CD40 monomer (human, UniProt P25942 21-193, limits assumed)
T1 construct: also called hCD40-monomer; human-CD40-monomer protein
T1 sequence (P25942 21-193 limits assumed): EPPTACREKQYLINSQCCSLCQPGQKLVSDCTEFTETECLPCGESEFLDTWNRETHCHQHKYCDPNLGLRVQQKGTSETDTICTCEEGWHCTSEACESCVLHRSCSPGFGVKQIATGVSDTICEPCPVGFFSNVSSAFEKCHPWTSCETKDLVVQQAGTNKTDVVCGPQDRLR
MEASUREMENT NOTES: SPR 2 pt screen, Ab on protein A
Each record is given condition met if its reported Kd is strictly below 6 nM. Records at or above 6 nM are given condition not met.

>  <BINDER>
humanized Y1238 hz24 (hz-HC5 / hz-LC4), IgG1.3f (antibody, V domains shown, IgG1.3f heavy constant, common CL; expression supernatant; also called Sup 24) VH: QVQLVQSGAEVKKPGASVKVSCKASGYAFTNYLIEWVRQRPGQGLEWMGVINPGSGGTNYNEKFKGRVTMTADKSISTAYMELSRLRSDDTAVYYCARSQLGRRFDYWGQGTLVTVSS VL: DIQMTQSPSSLSASVGDRVTITCKASQDVRTGVAWYQQKPGQSPKLLIYSASYRNTGVPSRFSGSRSGTDFTFTISSLQAEDIAVYYCQQHYSPPYTFGGGTKVEIK

>  <CLASS LABEL>
condition not met

$$$$
>  <BINDER>
humanized Y1238 hz43 (hz-HC9 / hz-LC3), IgG1.3f (antibody, V domains shown, IgG1.3f heavy constant, common CL; expression supernatant; also called Sup 43) VH: QVQLVQSGAEVVKPGASVKVSCKASGYAFTNYLIEWVRQRPGQGLEWMGVINPGSGGTNYNEKFKGRVTLTADKSSSTAYMQLSRLRSDDTAVYFCARSQLGRRFDYWGQGTTVTVSS VL: DIQMTQSPSSLSASVGDRVTITCKASQDVRTGVAWYQQKPGQSPKLLIYSASYRNTGVPSRFSGSRSGTDFTFTISSLQPEDIAVYYCQQHYSPPYTFGGGTKVEIK

>  <CLASS LABEL>
condition not met

$$$$
>  <BINDER>
humanized Y1238 hz28 (hz-HC6 / hz-LC3), IgG1.3f (antibody, V domains shown, IgG1.3f heavy constant, common CL; expression supernatant; also called Sup 28) VH: QVQLVQSGAEVKKPGASVKVSCKASGYAFTNYLIEWVRQRPGQGLEWMGVINPGSGGTNYNEKFKGRVTLTADKSISTAYMELSRLRSDDTAVYYCARSQLGRRFDYWGQGTLVTVSS VL: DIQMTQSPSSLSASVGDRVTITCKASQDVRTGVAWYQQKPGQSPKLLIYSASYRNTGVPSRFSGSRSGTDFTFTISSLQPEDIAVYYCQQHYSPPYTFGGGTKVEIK

>  <CLASS LABEL>
condition met

$$$$
>  <BINDER>
humanized Y1238 hz2 (hz-HC1 / hz-LC2), IgG1.3f (antibody, V domains shown, IgG1.3f heavy constant, common CL; expression supernatant; also called Sup 2) VH: QVQLVQSGAEVKKPGASVKVSCKASGYAFTNYLIEWVRQAPGQGLEWMGVINPGSGGTNYNEKFKGRVTMTRDTSISTAYMELSRLRSDDTAVYYCARSQLGRRFDYWGQGTLVTVSS VL: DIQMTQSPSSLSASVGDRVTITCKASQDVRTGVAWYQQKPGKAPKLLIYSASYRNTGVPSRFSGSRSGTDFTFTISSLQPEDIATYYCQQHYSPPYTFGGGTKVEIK

>  <CLASS LABEL>
condition met

$$$$
>  <BINDER>
humanized Y1238 hz23 (hz-HC5 / hz-LC3), IgG1.3f (antibody, V domains shown, IgG1.3f heavy constant, common CL; expression supernatant; also called Sup 23) VH: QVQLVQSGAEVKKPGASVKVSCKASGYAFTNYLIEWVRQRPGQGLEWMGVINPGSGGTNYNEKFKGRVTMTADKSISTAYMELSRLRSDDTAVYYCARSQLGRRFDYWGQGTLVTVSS VL: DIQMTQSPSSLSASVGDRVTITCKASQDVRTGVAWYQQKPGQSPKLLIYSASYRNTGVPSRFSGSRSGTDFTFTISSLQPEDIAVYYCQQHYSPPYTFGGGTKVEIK

>  <CLASS LABEL>
condition not met

$$$$
>  <BINDER>
humanized Y1238 hz37 (hz-HC8 / hz-LC2), IgG1.3f (antibody, V domains shown, IgG1.3f heavy constant, common CL; expression supernatant; also called Sup 37) VH: QVQLVQSGAEVVKPGASVKVSCKASGYAFTNYLIEWVRQRPGQGLEWMGVINPGSGGTNYNEKFKGRVTLTADKSSSTAYMQLSRLRSDDTAVYFCARSQLGRRFDYWGQGTLVTVSS VL: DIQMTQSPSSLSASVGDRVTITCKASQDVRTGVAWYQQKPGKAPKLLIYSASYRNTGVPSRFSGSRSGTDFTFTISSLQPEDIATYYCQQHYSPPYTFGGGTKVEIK

>  <CLASS LABEL>
condition met

$$$$
>  <BINDER>
chimeric Y1238 supernatant (Sup 56; HC-Chim / LC-Chim) (antibody, Tested as expression supernatant) VH: QVQLQQSGAELVRPGTSVKVSCKASGYAFTNYLIEWVKQRPGQGLEWIGVINPGSGGTNYNEKFKGKATLTADKSSSTAYMQLSSLTSDDSAVYFCARSQLGRRFDYWGQGTTLTVSS light: DIVMTQSHKFMSTSVGDRVSITCKASQDVRTGVAWYQQKPGQSPKLLIYSASYRNTGVPDRFTGSRSGTDFTFTISSVQAEDLAVYYCQQHYSPPYTFGGGTKLEIKRTVAAPSVFIFPPSDEQLKSGTASVVCLLNNFYPREAKVQWKVDNALQSGNSQESVTEQDSKDSTYSLSSTLTLSKADYEKHKVYACEVTHQGLSSPVTKSFNRGEC

>  <CLASS LABEL>
condition met

$$$$
>  <BINDER>
humanized Y1238 hz17 (hz-HC4 / hz-LC2), IgG1.3f (antibody, V domains shown, IgG1.3f heavy constant, common CL; expression supernatant; also called Sup 17) VH: QVQLVQSGAEVKKPGASVKVSCKASGYAFTNYLIEWVRQAPGQGLEWMGVINPGSGGTNYNEKFKGRVTMTADKSISTAYMELSRLRSDDTAVYYCARSQLGRRFDYWGQGTLVTVSS VL: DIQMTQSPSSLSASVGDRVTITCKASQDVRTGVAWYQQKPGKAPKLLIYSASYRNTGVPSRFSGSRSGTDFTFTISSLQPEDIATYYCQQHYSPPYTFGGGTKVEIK

>  <CLASS LABEL>
condition met

$$$$

Incoming: Answer whether the binder humanized Y1238 hz21 (hz-HC5 / hz-LC1), IgG1.3f (antibody, V domains shown, IgG1.3f heavy constant, common CL; expression supernatant; also called Sup 21) VH: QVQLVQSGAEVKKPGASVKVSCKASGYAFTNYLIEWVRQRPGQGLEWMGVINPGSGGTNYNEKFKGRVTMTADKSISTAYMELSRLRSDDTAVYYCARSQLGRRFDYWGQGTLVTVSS VL: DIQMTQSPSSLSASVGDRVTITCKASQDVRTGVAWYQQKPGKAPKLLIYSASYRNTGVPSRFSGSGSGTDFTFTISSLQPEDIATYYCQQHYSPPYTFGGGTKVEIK has Kd strictly less than 6 nM
Outgoing: condition met

These data points were gathered from patent US20220177596A1.
